Biological target: KRAS-G12V (Homo sapiens, UniProt P01116, G12V)
Sequence (P01116 with tags, fused parts or gaps isoform P01116-2 G12V): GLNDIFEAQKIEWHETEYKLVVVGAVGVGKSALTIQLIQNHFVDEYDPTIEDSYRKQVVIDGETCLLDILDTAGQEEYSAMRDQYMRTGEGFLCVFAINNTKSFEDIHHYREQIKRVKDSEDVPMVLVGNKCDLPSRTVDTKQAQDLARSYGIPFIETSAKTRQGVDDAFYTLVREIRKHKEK
Assay: SOS-catalyzed nucleotide exchange assay (Procedure A, TR-FRET), KRAS-G12V
Format: biochemical
Settings: nucleotide exchange, read-out: KRAS G12V GNE IC50
ENDPOINT_LABEL: IC50
Numeric answer plus unit only.

Recorded result, C[C@@]1(O)COCCN(c2nc(OC[C@@]34CCCN3C[C@H](F)C4)nc3sc4c(-c5cccc6c5CC5CC65)nccc4c23)C1 (single isomer, unassigned) , IC50: 157 nM

Recorded result, C[C@@]1(O)COCCN(c2nc(OC[C@@]34CCCN3C[C@H](F)C4)nc3sc4c(-c5ccc(F)c6sc(N)c(C#N)c56)nccc4c23)C1 , IC50: 2950 nM

Recorded result, C#CC1=CCCc2cc3[nH]ncc3c(-c3nccc4c3sc3nc(OC[C@@]56CCCN5C[C@H](F)C6)nc(N5CCOC[C@@](C)(O)C5)c34)c21 , IC50: 50.1 nM

----------
Molecular target: KRAS-G12C (C51S/C80L/C118S) (Homo sapiens, UniProt P01116, C118S/C51S/C80L/G12C)
Sequence (P01116 with tags, fused parts or gaps isoform P01116-2 G12C/C51S/C80L/C118S): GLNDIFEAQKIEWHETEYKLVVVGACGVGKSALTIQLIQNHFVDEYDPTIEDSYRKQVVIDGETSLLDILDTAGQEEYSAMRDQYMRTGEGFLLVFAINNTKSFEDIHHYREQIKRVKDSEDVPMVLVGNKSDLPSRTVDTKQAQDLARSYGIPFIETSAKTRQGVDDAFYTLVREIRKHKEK
Test: SOS-catalyzed nucleotide exchange assay (Procedure A, TR-FRET), KRAS-G12C
Format: biochemical
Conditions: nucleotide exchange, Procedure A; read-out: KRAS G12C GNE IC50
Answer each item with its documented IC50.
Please reply with the bare figure in nM and do not write the unit itself.

Recorded result, C[C@@]1(O)COCCN(c2nc(OC[C@@]34CCCN3C[C@H](F)C4)nc3sc4c(-c5c(-c6ccco6)c(Cl)cc6[nH]ncc56)nccc4c23)C1 , IC50: 112

Recorded result, Cc1cc2[nH]ncc2c(-c2nccc3c2sc2nc(OC[C@@]45CCCN4C[C@H](F)C5)nc(N4CCOC[C@@](C)(O)C4)c23)c1C(F)F , IC50: 50

Recorded result, C[C@H](N(C)C)[C@@]1(COc2nc(N3CCOC[C@@](C)(O)C3)c3c(n2)sc2c(-c4c(C5CC5)c(Cl)cc5[nH]ncc45)nccc23)CC1(F)F , IC50: 105

----------
Target: KRAS-G12C (C51S/C80L/C118S) (Homo sapiens, UniProt P01116, C118S/C51S/C80L/G12C)
Test: SOS-catalyzed nucleotide exchange assay (Procedure A, TR-FRET), KRAS-G12C
Type: biochemical
Conditions: nucleotide exchange, Procedure A; read-out: KRAS G12C GNE IC50
ENDPOINT_LABEL: IC50 (nM)
Please reply with the bare figure in nM and do not write the unit itself.

Recorded result, C#Cc1c(C)cc2[nH]ncc2c1-c1nccc2c3c(N4CCOC[C@@](C)(O)C4)nc(OC[C@@]45CCCN4C[C@H](F)C5)nc3n(C)c12 (single isomer, unassigned) , IC50: 129

Recorded result, C=C(C)c1c(C)cc2[nH]ncc2c1-c1nccc2c1sc1nc(OC[C@@]34CCCN3C[C@H](F)C4)nc(N3CCOC[C@@](C)(O)C3)c12 , IC50: 39

Recorded result, Cc1cc2[nH]ncc2c(-c2nccc3c2sc2nc(OC[C@@]45CCCN4C[C@H](F)C5)nc(N4CCOC[C@@](C)(O)C4)c23)c1OC(F)(F)Cl , IC50: 9.42

----------
Molecular target: KRAS-WT (Homo sapiens)
Assay: SOS-catalyzed nucleotide exchange assay (Procedure A, TR-FRET), KRAS-WT
Assay type: biochemical
Details: nucleotide exchange, read-out: KRAS WT GNE IC50
Param label: returns Y when IC50 < 200 nM, returns N otherwise, including exact equality.

In plain terms, does C[C@@]1(O)COCCN(c2nc(OC[C@@]34CCCN3C[C@H](F)C4)nc3sc4c(-c5c(-c6ccoc6)c(Cl)cc6[nH]ncc56)nccc4c23)C1 come in under 200 nM for IC50?
Y

In plain terms, does Cc1nc2[nH]nc(C)c2c(-c2nccc3c4c(N5CCOC[C@@](C)(O)C5)nc(OC[C@@]56CCCN5C[C@H](F)C6)nc4n(C)c23)c1C(F)(F)F come in under 200 nM for IC50?
N

In plain terms, does Cc1cc2[nH]ncc2c(-c2nccc3c2sc2nc(OC[C@@]45CCCN4C[C@H](F)C5)nc(N4CCOC[C@@](C)(O)C4)c23)c1C#N come in under 200 nM for IC50?
N

In plain terms, does C[C@@H]1C[C@@H](COc2nc(N3CCOC[C@@](C)(O)C3)c3c(n2)sc2c(-c4c(C5CC5)c(C(F)(F)F)cc5[nH]ncc45)nccc23)N(C)C1 come in under 200 nM for IC50?
Y

In plain terms, does Cc1cc2[nH]ncc2c(-c2nccc3c2sc2nc(OC[C@@]45CCCN4C[C@H](F)C5)nc(N4CCOC[C@@](C)(O)C4)c23)c1C(F)(F)F come in under 200 nM for IC50?
Y

In plain terms, does C[C@@]1(O)COCCN(c2nc(OC[C@@]34CCCN3C[C@H](F)C4)nc3sc4c(-c5c(C6CC6)c(C#N)cc6[nH]ncc56)nccc4c23)C1 come in under 200 nM for IC50?
N

----------
Target: KRAS-WT (Homo sapiens, UniProt P01116)
Sequence (P01116 with tags, fused parts or gaps isoform P01116-2): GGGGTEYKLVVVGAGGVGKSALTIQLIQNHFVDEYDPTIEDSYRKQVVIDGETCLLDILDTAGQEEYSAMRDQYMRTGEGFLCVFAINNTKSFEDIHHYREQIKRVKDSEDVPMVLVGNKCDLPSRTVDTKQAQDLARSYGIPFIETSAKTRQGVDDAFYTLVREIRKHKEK
Experiment: SOS-catalyzed nucleotide exchange assay (Procedure A, TR-FRET), KRAS-WT
Type: biochemical
Details: nucleotide exchange, read-out: KRAS WT GNE IC50
ENDPOINT_LABEL: IC50 (µM)
Please reply with the bare figure in µM and do not write the unit itself.

Recorded result, CC1CCc2cc3[nH]ncc3c(-c3nccc4c3sc3nc(OC[C@@]56CCCN5C[C@H](F)C6)nc(N5CCOC[C@@](C)(O)C5)c34)c21 (single isomer, unassigned) , IC50: 0.00628

Recorded result, CO[C@H]1CN2CCC[C@@]2(COc2nc(N3CCOC[C@@](C)(O)C3)c3c(n2)sc2c(-c4c(C5CC5)c(Cl)cc5[nH]ncc45)nccc23)C1 , IC50: 0.0225

Recorded result, COc1cc2c(sc3nc(OC[C@@]45CCCN4C[C@H](F)C5)nc(N4CCOC[C@@](C)(O)C4)c32)c(-c2c(C(F)(F)F)c(C)cc3[nH]ncc23)n1 , IC50: 0.793

Recorded result, Cc1nc2[nH]ncc2c(-c2nccc3c4c(N5CCOC[C@@](C)(O)C5)nc(OC[C@@]56CCCN5C[C@H](F)C6)nc4n(C)c23)c1C(F)(F)F , IC50: 0.681

Recorded result, C[C@@]1(O)COCCN(c2nc(OC[C@@]34CCCN3C/C(=C/F)C4)nc3sc4c(-c5c(C6CC6)c(Cl)cc6[nH]ncc56)nccc4c23)C1 , IC50: 0.00946

Recorded result, CC1CCc2ccc(F)c(-c3nccc4c3sc3nc(OC[C@@]56CCCN5C[C@H](F)C6)nc(N5CCOC[C@@](C)(O)C5)c34)c21 (single isomer, unassigned) , IC50: 0.432

Recorded result, Cc1cc2[nH]ncc2c(-c2nccc3c2sc2nc(OC[C@@]45CCCN4C[C@H](F)C5)nc(NC4CNC(=O)C4)c23)c1C(F)(F)F (stereo partly drawn) , IC50: 0.418

Recorded result, Cc1cc2[nH]ncc2c(-c2nccc3c4c(N5CCC[C@@](C)(O)C5)nc(OC[C@]5(CN(C)C)CC5(F)F)nc4n(C)c23)c1C(F)(F)F , IC50: 0.218

Recorded result, C#Cc1c(F)ccc2cc(O)cc(-c3nccc4c5c(N6CCOC[C@@](C)(O)C6)nc(OC[C@@]67CCCN6C[C@H](F)C7)nc5n(C)c34)c12 , IC50: 0.00146

Recorded result, C[C@@]1(O)COCCN(c2nc(OC[C@]3(CN4CC5CC5C4)CC3(F)F)nc3sc4c(-c5c(C6(F)CC6)c(Cl)cc6[nH]ncc56)nccc4c23)C1 (stereo partly drawn) , IC50: 0.158

Recorded result, CN(C)C[C@@]1(COc2nc(N3CCOC[C@@](C)(O)C3)c3c(n2)sc2c(-c4c(C5CC5)c(C(F)(F)F)cc5[nH]ncc45)nccc23)CC1(F)F , IC50: 0.0235

Recorded result, C[C@@]1(O)COCCN(c2nc(OC[C@@]34CCCN3C[C@H](F)C4)nc3sc4c(-c5c(-c6cc[nH]c6)c(Cl)cc6[nH]ncc56)nccc4c23)C1 , IC50: 0.0604

----------
Target: KRAS-WT (Homo sapiens)
Assay: SOS-catalyzed nucleotide exchange assay (Procedure A, TR-FRET), KRAS-WT
Assay type: biochemical
Settings: nucleotide exchange, read-out: KRAS WT GNE IC50
Param label: returns T when IC50 < 30 nM, returns F otherwise, including exact equality.

In plain terms, does COC1(C)CN(C[C@@]2(COc3nc(N4CCOC[C@@](C)(O)C4)c4c(n3)sc3c(-c5c(C6(F)CC6)c(Cl)cc6[nH]ncc56)nccc34)CC2(F)F)C1 come in under 30 nM for IC50?
T

In plain terms, does Cn1c2nc(OC[C@@]34CCCN3C[C@H](F)C4)nc(N3CCOC[C@@](C)(O)C3)c2c2ccnc(-c3c(C(F)F)c(Cl)cc4[nH]nc(C#N)c34)c21 (single isomer, unassigned) come in under 30 nM for IC50?
F

In plain terms, does C[C@@]1(O)COCCN(c2nc(OC[C@@]34CCCN3C[C@H](F)C4)nc3sc4c(-c5c(C6CC6)c(Cl)cc6[nH]ncc56)nccc4c23)C1 come in under 30 nM for IC50?
T

In plain terms, does C[C@@]1(O)COCCN(c2nc(OC[C@@]34CCCN3C[C@H](F)C4)nc3sc4c(-c5c(C6CCC6)c(Cl)cc6[nH]ncc56)nccc4c23)C1 come in under 30 nM for IC50?
T

In plain terms, does Cc1c(Cl)cccc1-c1nccc2c1sc1nc(OC[C@@]34CCCN3C[C@H](F)C4)nc(N3CCOC[C@@](C)(O)C3)c12 come in under 30 nM for IC50?
F

In plain terms, does CCC1c2c(cc3[nH]ncc3c2-c2nccc3c2sc2nc(OC[C@@]45CCCN4C/C(=C\F)C5)nc(N4CCOC[C@@](C)(O)C4)c23)CC1(F)F (single isomer, unassigned) come in under 30 nM for IC50?
T

In plain terms, does C[C@@]1(O)COCCN(c2nc(OC[C@@]34CCCN3C[C@H](F)C4)nc3sc4c(-c5c(C6=CCC6)c(C(F)(F)F)cc6[nH]ncc56)nccc4c23)C1 come in under 30 nM for IC50?
F

In plain terms, does CN1CCC[C@@]2(COc3nc(N4CCOC[C@@](C)(O)C4)c4c(n3)sc3c(-c5c(C6(F)CC6)c(Cl)cc6[nH]ncc56)nccc34)CCC[C@@H]12 come in under 30 nM for IC50?
T

In plain terms, does CC1(O)COCCN(c2nc(OCC3(CN4CC5C(F)C5C4)CC3(F)F)nc3sc4c(-c5c(C6CC6)c(Cl)cc6[nH]ncc56)nccc4c23)C1 (centres unmarked) come in under 30 nM for IC50?
F

In plain terms, does C[C@H](N(C)C)[C@@]1(COc2nc(N3CCOC[C@@](C)(O)C3)c3c(n2)sc2c(-c4c(C5CC5)c(Cl)cc5[nH]ncc45)nccc23)CC1(F)F come in under 30 nM for IC50?
T

In plain terms, does CNc1cc2c(sc3nc(OC[C@@]45CCCN4C[C@H](F)C5)nc(N4CCOC[C@@](C)(O)C4)c32)c(-c2c(C(F)(F)F)c(C)cc3[nH]ncc23)n1 come in under 30 nM for IC50?
F
